Would you mind telling me the reported kon of each entry?
Biological target: T1, human IL-1β (human, UniProt P01584 117-269)
T1 construct: mature; the summary says that the SPR values are for mature human IL-1β; also called mature human IL-1β; Interleukin-1β
Assay: SPR (BIAcore), antibody captured on protein A, human IL-1β flowed; HBS-EP pH 7.4, 25 C
Answers are plain numbers, in M⁻¹ s⁻¹.

Some solved entries appear below for comparison.
W20 (IgG1) (antibody, V domains shown, humanized, IgG1 kappa) VH: QVQLVQSGAEVKKPGSSVKVSCKASGYTFDRYWIEWVRQAPGQGLEWMGEILPGSGDINYNEKFKGRVTITADKSTSTAYMELSSLRSEDTAVYYCARMYYDYDQGFDYWGQGTLVTVSS VL: DIQMTQSPSSLSASVGDRVTITCKFSQDIDRFLSWFQQKPGKAPKSLIYRVKRLVDGVPSRFSGSGSGTDFTLTISSLQPEDFATYYCVQYDEFPYTFGGGTKVEIKR	3.8e+07
W13 (IgG1) (antibody, V domains shown, humanized, IgG1 kappa) VH: QVQLVQSGAEVKKPGSSVKVSCKASGYTFDRYWIEWVRQAPGQGLEWMGEILPGSGDINYNEKFKGRVTITADKSTSTAYMELSSLRSEDTAVYYCARMYYDYDQGFDYWGQGTLVTVSS VL: DIQMTQSPSSLSASVGDRVTITCKFSQDIDRFLTWFQQKPGKAPKSLIYRVKRLVDGVPSRFSGSGSGTDFTLTISSLQPEDFATYYCIQYDEFPYTFGGGTKVEIKR	6.1e+07
U43 (IgG1) (antibody, V domains shown, humanized, IgG1 kappa) VH: QVQLVQSGAEVKKPGSSVKVSCKASGYTFDRYWIEWVRQAPGQGLEWMGEILPGSGDINYNEKFKGRVTITADKSTSTAYMELSSLRSEDTAVYYCARMYYDYDQGFSLWGQGTLVTVSS VL: DIQMTQSPSSLSASVGDRVTITCKASQDIDRFLSWFQQKPGKAPKSLIYRVKRLVDGVPSRFSGSGSGTDFTLTISSLQPEDFATYYCVQYDEFPYTFGGGTKVEIKR	4.7e+07

Query binder follows.
Value of kon reported for the binder W18 (IgG1) (antibody, V domains shown, humanized, IgG1 kappa) VH: QVQLVQSGAEVKKPGSSVKVSCKASGYTFDRYWIEWVRQAPGQGLEWMGEILPGSGTINYNEKFKGRVTITADKSTSTAYMELSSLRSEDTAVYYCARMYYDYDQGFDNWGQGTLVTVSS VL: DIQMTQSPSSLSASVGDRVTITCKFSQDIDRFLSWFQQKPGKAPKSLIYRVKRLVDGVPSRFSGSGSGTDFTLTISSLQPEDFATYYCVQYDEFPYTFGGGTKVEIKR is 4.1e+07
